Tested on: TTR
protocol: TTR editing in HepG2 cells transfected with Spy Cas9 mRNA and dgRNAs (Table 6)
Assay type: cell-based, human
condition.set: HepG2 cells co-transfected with Spy Cas9 mRNA (SEQ ID NO:2) and dgRNAs
If the reported Avg % Deletion equals or exceeds 4%, assign TRUE. If not, assign FALSE.

QUERY: Kindly determine if Avg % Deletion recorded for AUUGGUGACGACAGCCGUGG (tested as dual guide RNA, chemistry not given here) [CR003389] is above or exactly 4%.
RESULT: TRUE

QUERY: Reported Avg % Deletion reaches at least 4% for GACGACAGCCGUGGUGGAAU (tested as dual guide RNA, chemistry not given here) [CR003388] ?
RESULT: FALSE

QUERY: Is reported Avg % Deletion greater than or equal to 4% here: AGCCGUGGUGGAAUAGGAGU (tested as dual guide RNA, chemistry not given here) [CR005299]
RESULT: FALSE

QUERY: Tell me whether Avg % Deletion is at least 4% here: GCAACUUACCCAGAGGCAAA (tested as dual guide RNA, chemistry not given here) [CR003356]
RESULT: FALSE

QUERY: Decide: is the reported value of Avg % Deletion for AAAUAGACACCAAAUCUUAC (tested as dual guide RNA, chemistry not given here) [CR003366] equal to or greater than 4%?
RESULT: TRUE

QUERY: Given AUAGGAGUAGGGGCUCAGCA (tested as dual guide RNA, chemistry not given here) [CR003383] , state whether its Avg % Deletion is at least 4%.
RESULT: FALSE

QUERY: State whether the measured Avg % Deletion reaches 4%, counting equality as reaching it, for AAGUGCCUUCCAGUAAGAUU (tested as dual guide RNA, chemistry not given here) [CR003368]
RESULT: FALSE
